# TEST DESCRIPTION: Compound cytotoxicity in CEM-SS cells (MTS)
# Type: cell-based
# CONDITION INFO: human, Table 2 (HIV-2ROD experiment), read-out: TC50 (concentration resulting in 50% cell death)

- SMI: "O=C(Nc1ccc(S(=O)(=O)Nc2ncccn2)cc1)/C(=C\\c1cccs1)NC(=O)c1cccs1"
  CC50 at 6 days: "> 300 µM"
- SMI: "Cc1cc(C)nc(NS(=O)(=O)c2ccc(NC(=O)/C(=C\\c3cccs3)NC(=O)c3cccs3)cc2)n1"
  CC50 at 6 days: "> 300 µM"

====

In this section, each of the compounds is paired with its reported CC50 at 6 days.
# TEST DESCRIPTION: Compound cytotoxicity in CEM-SS cells (MTS)
# Type: cell-based
# CONDITION INFO: human, Table 1 (HIV-1IIIB experiment), read-out: TC50 (concentration resulting in 50% cell death)

- SMI: "O=C(Nc1ccc(S(=O)(=O)Nc2ncccn2)cc1)/C(=C\\c1cccs1)NC(=O)c1cccs1"
  CC50 at 6 days: "114 µM"
- SMI: "Cc1cc(C)nc(NS(=O)(=O)c2ccc(NC(=O)/C(=C\\c3cccs3)NC(=O)c3cccs3)cc2)n1"
  CC50 at 6 days: "> 100 µM"
- SMI: "Cc1ccnc(NS(=O)(=O)c2ccc3c(c2)CCN3C(=O)/C(=C\\c2cccs2)NC(=O)c2cccs2)n1"
  CC50 at 6 days: "> 300 µM"

====

# STUDY TARGET: GST tagged hPOSH (Homo sapiens, UniProt Q7Z6J0)
# Construct: a fused GST-RING subunit of POSH protein
# Sequence (Q7Z6J0 12-53 limits assumed): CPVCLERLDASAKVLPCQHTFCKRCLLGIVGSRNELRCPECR
# TEST DESCRIPTION: HTS TR-FRET assay of POSH autoubiquitination
# CONDITION INFO: GST tagged hPOSH with E1, UbCH5c, ubiquitin-cryptate, read-out: IC50 (POSH autoubiquitination, in vitro assay)
pIC50: −log10 of the molar value.

- SMI: "Cc1cc(C)nc(NS(=O)(=O)c2ccc(NC(=O)/C(=C\\c3cccs3)NC(=O)c3cccs3)cc2)n1"
  pIC50: 5.70

====

# System: HIV-2ROD
# TEST DESCRIPTION: HIV cytoprotection assay, HIV-2ROD in CEM-SS cells (MTS)
# Type: cell-based
# CONDITION INFO: Human immunodeficiency virus 2, 144 h; HIV-2ROD, CEM-SS cells, 6 days; read-out: IC50 (concentration inhibiting virus replication by 50%)
EXPERIMENTAL READOUT: IC50

- SMI: "O=C(Nc1ccc(S(=O)(=O)Nc2ncccn2)cc1)/C(=C\\c1cccs1)NC(=O)c1cccs1"
  TEST RESULT: "29.5 µM"

====

# Test system: HIV-1IIIB
# TEST DESCRIPTION: HIV cytoprotection assay, HIV-1IIIB in CEM-SS cells (MTS)
# Assay type: cell-based
# CONDITION INFO: Human immunodeficiency virus 1, 144 h; HIV-1IIIB, CEM-SS cells, 6 days; read-out: IC50 (concentration inhibiting virus replication by 50%)
pIC50: −log10 of the molar value.

- COMPOUND: "O=C(Nc1ccc(S(=O)(=O)Nc2ncccn2)cc1)/C(=C\\c1cccs1)NC(=O)c1cccs1 [Compound 2]"
  STUDY TARGET: "HIV-1IIIB"
  pIC50: 5.40
- COMPOUND: "Cc1ccnc(NS(=O)(=O)c2ccc3c(c2)CCN3C(=O)/C(=C\\c2cccs2)NC(=O)c2cccs2)n1 [Compound 5]"
  STUDY TARGET: "HIV-1IIIB"
  pIC50: 5.55
